Reference for the values: ChEMBL document CHEMBL4480410

biological target: Epidermal growth factor receptor (Homo sapiens, UniProt P00533, L858R/T790M); experiment: Inhibition of EGFR L858R/T790M double mutant (unknown origin) by HTRF assay
Sequence (P00533 25-1210 T790M/L858R limits assumed): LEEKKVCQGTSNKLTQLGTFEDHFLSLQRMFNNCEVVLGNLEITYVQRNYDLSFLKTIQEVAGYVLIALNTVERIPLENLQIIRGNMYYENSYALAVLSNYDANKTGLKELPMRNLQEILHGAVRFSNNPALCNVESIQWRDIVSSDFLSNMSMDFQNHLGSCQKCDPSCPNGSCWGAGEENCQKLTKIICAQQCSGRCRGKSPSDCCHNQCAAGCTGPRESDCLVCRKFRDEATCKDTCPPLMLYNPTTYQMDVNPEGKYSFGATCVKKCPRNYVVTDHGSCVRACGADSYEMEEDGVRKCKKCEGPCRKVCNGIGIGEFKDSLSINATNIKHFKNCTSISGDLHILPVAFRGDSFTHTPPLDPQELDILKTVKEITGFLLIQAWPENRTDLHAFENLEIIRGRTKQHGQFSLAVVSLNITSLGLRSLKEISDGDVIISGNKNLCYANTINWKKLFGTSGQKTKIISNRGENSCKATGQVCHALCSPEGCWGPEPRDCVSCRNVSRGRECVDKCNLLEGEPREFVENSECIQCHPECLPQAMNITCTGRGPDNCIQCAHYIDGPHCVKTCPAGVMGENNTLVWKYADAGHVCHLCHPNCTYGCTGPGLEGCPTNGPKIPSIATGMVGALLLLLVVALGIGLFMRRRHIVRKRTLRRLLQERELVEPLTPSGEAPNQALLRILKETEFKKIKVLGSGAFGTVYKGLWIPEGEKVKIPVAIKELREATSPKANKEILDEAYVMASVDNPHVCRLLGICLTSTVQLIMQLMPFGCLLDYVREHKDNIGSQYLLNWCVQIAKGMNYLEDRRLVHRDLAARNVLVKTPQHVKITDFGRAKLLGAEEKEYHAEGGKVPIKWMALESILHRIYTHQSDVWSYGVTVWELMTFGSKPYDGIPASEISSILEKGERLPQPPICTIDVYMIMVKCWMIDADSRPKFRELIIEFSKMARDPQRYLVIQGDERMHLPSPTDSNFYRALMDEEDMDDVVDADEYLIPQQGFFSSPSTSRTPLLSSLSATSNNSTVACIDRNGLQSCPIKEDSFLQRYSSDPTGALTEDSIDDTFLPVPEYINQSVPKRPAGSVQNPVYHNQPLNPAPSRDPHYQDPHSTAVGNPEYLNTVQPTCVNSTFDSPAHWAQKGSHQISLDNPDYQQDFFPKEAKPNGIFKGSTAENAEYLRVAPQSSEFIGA
Parameter pIC50: see the listing below.
Scale: pIC50 equals -log10([C]), with [C] in mol/L.

Example entries and their recorded answers appear below.
structure_as_smiles=C=CC(=O)N1CCC[C@@H](n2nc(-c3cn(Cc4nc5ccc(Cl)cn5c4Br)nn3)c3c(N)ncnc32)C1 observed_property=pIC50 measurement=6.98
structure_as_smiles=CCC(=O)N1CCC[C@@H](n2nc(-c3cn(-c4ccc(C(C)=O)cc4)nn3)c3c(N)ncnc32)C1 observed_property=pIC50 measurement=6.17

Proceeding to the next compound to report its pIC50.
# input Any idea what pIC50 was measured for `C=CC(=O)N1CCC[C@@H](n2nc(-c3cn(-c4cc(C(F)(F)F)cnc4C#N)nn3)c3c(N)ncnc32)C1` ?
# output 7.55

---

fraction unbound at 6 h, 5 µM values, listed per item
test: Protein binding in human plasma at 5 uM after 6 hrs by LC/MS analysis; assay type: ADME, cell-free; conditions: read-out: PPB (converted)
Just the number, please, no unit after it.

molecule=C=CC(=O)N1CCC[C@@H](n2nc(-c3cn(-c4ccc(C(C)=O)cc4)nn3)c3c(N)ncnc32)C1 measurement=0.04

Shift focus to the following entry.
# input Returns the measured fraction unbound at 6 h, 5 µM for the input molecule. Input: C=CC(=O)N1CCC[C@@H](n2nc(-c3ccc(Oc4ccccc4)cc3)c3c(N)ncnc32)C1 [IBRUTINIB]
# output 0.024

---

assay: Stability in mouse plasma assessed as compound remaining at 5 uM after 1 hr by LC/MS analysis; assay type: ADME, cell-free; details: read-out: Stability
observed-property: remaining at 1 h, 5 µM (%)
// return numeric value only (unit: %, not printed)

# input Any idea what remaining at 1 h, 5 µM was measured for `C=CC(=O)N1CCC[C@@H](n2nc(-c3cn(-c4ccc(C(C)=O)cc4)nn3)c3c(N)ncnc32)C1` ?
# output 70.4

---

assay: Kinetic solubility of the compound in Hepes buffer at pH 7.4 after 90 mins; type: physicochemical; details: read-out: Kinetic_solubility
observed-property: solubility kinetic at 1.5 h (µM)
Entry rule: numbers only, all in µM.

compound="C=CC(=O)N1CCC[C@@H](n2nc(-c3ccc(Oc4ccccc4)cc3)c3c(N)ncnc32)C1 [IBRUTINIB]" observed_property="solubility kinetic at 1.5 h" measurement=36

# ---- query compound ----
# input # solubility kinetic at 1.5 h lookup, item `C=CC(=O)N1CCC[C@@H](n2nc(-c3cn(-c4ccc(C(C)=O)cc4)nn3)c3c(N)ncnc32)C1`
# output 8

---

assay: Stability in human plasma assessed as compound remaining at 5 uM after 1 hr by LC/MS analysis; assay type: ADME, cell-free; conditions: read-out: Stability
observed-property: remaining at 1 h, 5 µM (%)
Express your answer in %, writing the number without its unit.

# input Sample `C=CC(=O)N1CCC[C@@H](n2nc(-c3ccc(Oc4ccccc4)cc3)c3c(N)ncnc32)C1` — what was its remaining at 1 h, 5 µM?
# output 79.7

---

Epidermal growth factor receptor (Homo sapiens, UniProt P00533) measurements of IC50, listed per entry.
Sequence (P00533 whole entry): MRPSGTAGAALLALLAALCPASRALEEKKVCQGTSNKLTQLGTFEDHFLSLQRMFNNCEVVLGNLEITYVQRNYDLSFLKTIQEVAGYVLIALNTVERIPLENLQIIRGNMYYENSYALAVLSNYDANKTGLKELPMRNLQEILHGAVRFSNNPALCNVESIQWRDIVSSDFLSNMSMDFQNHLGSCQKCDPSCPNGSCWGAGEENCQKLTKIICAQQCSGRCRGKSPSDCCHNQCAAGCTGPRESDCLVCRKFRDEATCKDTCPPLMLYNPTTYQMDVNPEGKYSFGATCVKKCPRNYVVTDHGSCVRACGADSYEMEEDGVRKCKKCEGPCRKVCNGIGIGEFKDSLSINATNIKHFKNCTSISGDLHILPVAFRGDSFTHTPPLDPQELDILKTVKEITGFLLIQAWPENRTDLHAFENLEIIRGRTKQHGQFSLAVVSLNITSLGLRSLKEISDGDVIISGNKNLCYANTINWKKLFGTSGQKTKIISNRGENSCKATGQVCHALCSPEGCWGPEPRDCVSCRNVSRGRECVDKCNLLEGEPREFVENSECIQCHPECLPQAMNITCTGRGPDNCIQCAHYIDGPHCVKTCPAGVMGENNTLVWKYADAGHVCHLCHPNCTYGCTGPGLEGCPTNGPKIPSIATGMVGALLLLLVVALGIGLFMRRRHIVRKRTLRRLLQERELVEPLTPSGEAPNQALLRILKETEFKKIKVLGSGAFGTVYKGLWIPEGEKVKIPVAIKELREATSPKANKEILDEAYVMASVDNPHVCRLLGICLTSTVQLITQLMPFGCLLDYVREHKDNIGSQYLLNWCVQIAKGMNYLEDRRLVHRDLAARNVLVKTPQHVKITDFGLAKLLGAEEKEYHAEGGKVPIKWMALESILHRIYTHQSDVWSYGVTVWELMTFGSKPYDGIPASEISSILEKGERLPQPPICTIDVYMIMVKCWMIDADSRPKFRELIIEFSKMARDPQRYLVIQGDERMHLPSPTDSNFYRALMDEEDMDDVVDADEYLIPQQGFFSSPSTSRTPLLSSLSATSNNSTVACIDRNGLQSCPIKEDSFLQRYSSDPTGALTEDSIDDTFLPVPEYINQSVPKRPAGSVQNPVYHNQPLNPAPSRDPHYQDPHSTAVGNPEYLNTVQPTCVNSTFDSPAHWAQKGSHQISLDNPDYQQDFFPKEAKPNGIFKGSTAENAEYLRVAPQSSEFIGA
The response must be a number in nM with no trailing unit.

The examples below pair each entry with its known result.
structure_as_smiles=C=CC(=O)N1CCC[C@@H](n2nc(-c3cn(-c4cc(C(F)(F)F)cnc4C#N)nn3)c3c(N)ncnc32)C1 observed_property=IC50 scale_unit=nM measurement=6
structure_as_smiles=CCC(=O)N1CCC[C@@H](n2nc(-c3cn(-c4ccc(C(C)=O)cc4)nn3)c3c(N)ncnc32)C1 observed_property=IC50 scale_unit=nM measurement=649

# input Look up IC50 for this compound: `C=CC(=O)N1CCC[C@@H](n2nc(-c3cn(Cc4nc5ccc(Cl)cn5c4Br)nn3)c3c(N)ncnc32)C1`
# output 85

---

In this section we review reported Papp A→B at 2 h, 10 µM values for a set of compounds.
assay: Apparent permeability across apical to basolateral side in MDCK2-MDR1 cells at 10 uM after 2 hrs by transwell membrane based assay; assay type: ADME, cell-based, Canis lupus familiaris; conditions: dog, MDCK-MDR1
Reply with the number, then its unit.

structure_as_smiles=C=CC(=O)N1CCC[C@@H](n2nc(-c3cn(-c4ccc(C(C)=O)cc4)nn3)c3c(N)ncnc32)C1 observed_property="Papp A→B at 2 h, 10 µM" measurement="9 ×10⁻⁶ cm/s"

Please look at the following compound next.
# input compound: `C=CC(=O)N1CCC[C@@H](n2nc(-c3ccc(Oc4ccccc4)cc3)c3c(N)ncnc32)C1` ; wanted: its Papp A→B at 2 h, 10 µM
# output 22 ×10⁻⁶ cm/s

---

test: Protein binding in mouse plasma at 5 uM after 6 hrs by LC/MS analysis; type: ADME, cell-free; conditions: read-out: PPB (converted)
observed-property: fraction unbound at 6 h, 5 µM

compound="C=CC(=O)N1CCC[C@@H](n2nc(-c3ccc(Oc4ccccc4)cc3)c3c(N)ncnc32)C1 [IBRUTINIB]" measurement=0.011

Let's switch to this compound now.
# input Requested field: fraction unbound at 6 h, 5 µM. Item: `C=CC(=O)N1CCC[C@@H](n2nc(-c3cn(-c4ccc(C(C)=O)cc4)nn3)c3c(N)ncnc32)C1`
# output 0.073

---

test: in vitro; conditions: human, liver microsomes
Description: Intrinsic clearance in human liver microsomes at 3 uM measured up to 60 mins by LC/MS analysis
observed-property: microsomal CLint at 1 h, 3 µM (µL/min/mg)
Provide only the numeric value, understood in µL/min/mg.

# input # lookup: microsomal CLint at 1 h, 3 µM of `C=CC(=O)N1CCC[C@@H](n2nc(-c3cn(-c4ccc(C(C)=O)cc4)nn3)c3c(N)ncnc32)C1`
# output 154
